The reported numbers originate from patent US11739101B2.

# TARGET_SYSTEM: HPK1 (Homo sapiens)
# Construct: A HiBiT tag was introduced by CRISPR on the N terminus of HPK1 in Jurkat cells; host or cells: Jurkat (ATCC TIB-152), monoclonal CRISPR HiBiT knock-in line
# Sequence (Q92918 whole entry): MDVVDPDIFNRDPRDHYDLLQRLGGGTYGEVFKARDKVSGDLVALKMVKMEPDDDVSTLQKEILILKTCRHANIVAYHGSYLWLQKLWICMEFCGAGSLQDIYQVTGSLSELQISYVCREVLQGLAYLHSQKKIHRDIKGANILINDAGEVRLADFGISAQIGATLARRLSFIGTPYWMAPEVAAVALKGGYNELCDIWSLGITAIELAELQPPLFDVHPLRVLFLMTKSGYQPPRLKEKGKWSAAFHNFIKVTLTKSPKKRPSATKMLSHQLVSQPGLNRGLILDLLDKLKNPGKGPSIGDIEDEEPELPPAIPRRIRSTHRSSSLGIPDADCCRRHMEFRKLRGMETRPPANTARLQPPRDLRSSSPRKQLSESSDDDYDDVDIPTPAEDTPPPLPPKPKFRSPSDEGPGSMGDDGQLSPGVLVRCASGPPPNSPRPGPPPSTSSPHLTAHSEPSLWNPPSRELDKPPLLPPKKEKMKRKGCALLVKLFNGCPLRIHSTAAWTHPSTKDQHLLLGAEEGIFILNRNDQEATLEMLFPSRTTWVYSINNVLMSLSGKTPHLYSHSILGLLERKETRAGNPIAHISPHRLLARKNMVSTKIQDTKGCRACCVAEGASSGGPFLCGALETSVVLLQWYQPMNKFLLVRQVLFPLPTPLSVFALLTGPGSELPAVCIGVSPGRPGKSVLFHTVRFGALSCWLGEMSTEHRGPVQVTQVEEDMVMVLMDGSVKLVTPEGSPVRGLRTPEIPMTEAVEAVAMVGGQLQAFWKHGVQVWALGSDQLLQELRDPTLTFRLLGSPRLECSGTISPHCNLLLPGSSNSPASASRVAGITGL
# PROTOCOL_DESCRIPTION: HPK1 Cellular HiBiT Degradation Assay
# Assay type: cell-based
# CONDITION_PARAMETERS: HiBiT-tagged HPK1 Jurkat cells, 24 hours, 10 uM to 0.1 nM; Dmax = 100 minus lowest % HPK1 remaining vs DMSO vehicle
Recorded Dmax by entry

These solved cases illustrate the format of a correct answer.
COMPOUND | TARGET_SYSTEM | ASSAY_RESULT
Cc1cc(F)c(Nc2nc(-c3ccc4c(c3)N([C@H]3C[C@@H](N5CCCCC5)C3)C(=O)C43CCN(C(=O)C4CCN(C(=O)[C@H]5CC[C@@H](Nc6cccc7c6C(=O)N(C6CCC(=O)NC6=O)C7=O)CC5)C4)CC3)cc3ncn(C(C)C)c23)cc1C(=O)NC(C)C (stereo partly shown) | HPK1 (Homo sapiens) | < 45%
Cc1cc(F)c(Nc2nc(-c3ccc4c(c3)N([C@H]3C[C@@H](N5CCCCC5)C3)C(=O)C43CCN(C(=O)CN4CCN(c5ccc(CC(=O)NCCNc6cccc7c6C(=O)N(C6CCC(=O)NC6=O)C7=O)cc5)CC4)CC3)cc3ncn(C(C)C)c23)cc1C(=O)NC(C)C (stereo partly shown) | HPK1 (Homo sapiens) | 45 to 65%
Cc1cc(F)c(Nc2nc(-c3ccc4c(c3)N([C@H]3C[C@@H](N5CCCCC5)C3)C(=O)C43CCN(C(=O)CCCCCC(=O)N[C@H](C(=O)N4C[C@H](O)C[C@H]4C(=O)N[C@@H](C)c4ccc(-c5scnc5C)cc4)C(C)(C)C)CC3)cc3ncn(C(C)C)c23)cc1C(=O)NC(C)C | HPK1 (Homo sapiens) | > 65%
Cc1cc(F)c(Nc2nc(-c3ccc4c(c3)N([C@H]3C[C@@H](N5CCCCC5)C3)C(=O)C43CCN(C(=O)C4CCN(Cc5ccc(C(=O)NCCNc6cccc7c6C(=O)N(C6CCC(=O)NC6=O)C7=O)nc5)CC4)CC3)cc3ncn(C(C)C)c23)cc1C(=O)NC(C)C (stereo partly shown) | HPK1 (Homo sapiens) | > 65%
Cc1cc(F)c(Nc2nc(-c3ccc4c(c3)N([C@H]3C[C@@H](N5CCCCC5)C3)C(=O)C43CCN(C(=O)CCC4CCCN(CC(=O)NC(C(=O)N5C[C@H](O)C[C@H]5C(=O)N[C@@H](C)c5ccc(-c6scnc6C)cc5)C(C)(C)C)C4)CC3)cc3ncn(C(C)C)c23)cc1C(=O)NC(C)C (stereo partly shown) | HPK1 (Homo sapiens) | 45 to 65%
Cc1cc(F)c(Nc2nc(-c3ccc4c(c3)N([C@H]3C[C@@H](N5CCCCC5)C3)C(=O)C43CCN(C(=O)CCCCCCCOc4cc(-c5scnc5C)ccc4CNC(=O)[C@@H]4C[C@@H](O)CN4C(=O)[C@@H](NC(=O)C4(F)CC4)C(C)(C)C)CC3)cc3ncn(C(C)C)c23)cc1C(=O)NC(C)C | HPK1 (Homo sapiens) | < 45%

Turning now to a further record.
# input compound: Cc1cc(F)c(Nc2nc(-c3ccc4c(c3)N([C@H]3C[C@@H](N5CCCCC5)C3)C(=O)C43CCN(C(=O)c4ccc(N5CCN(c6ccc7c(c6)C(=O)N(C6CCC(=O)NC6=O)C7=O)CC5)nc4)CC3)cc3ncn(C(C)C)c23)cc1C(=O)NC(C)C (stereo partly shown) ; wanted: its Dmax < 45%
